# Assay Summary: yeast display, Sf9 membrane polyspecificity reagent, FACS + sequencing; frameworks hold sequencing errors
Readout Label: polyreactivity (PSR sort gate)

Example cases with answers are listed next.
Sequence Text	polyreactivity (PSR sort gate)
QVQLVESGGGLVQAGGSLRLSCAASGRIFYQNALGWYRQAPGKERELVADITSGGSTYYADSVKGRFTISRDNAKNTVYLQMNSLKPEDTAVYDCNTPSGPGTVGSYRRKWYGYWGQGTQVTVSS	low polyreactivity
QVQLVESGGGLVQAGGSLRLSCAASGSIFVYNAMGWYRQAPGKEREFVAAISWSVGRTYYADSVKGRFTFSRDNEKNTVYLQMNSLKPEDNAVYYCNAEFVAWYYYEEHDGDYWGQGTQVTVSS	high polyreactivity
QVQLVESGGGLVQAGGSLRLSCAASGRIFAHNAMGWYRQAPGKERELVAAINWSGGSTYYADSVTWRFTISRDNAKNTVYLQMNSLKPEDTAVYYCNNRYIHRSRAGYDYWGQGTQVTVSS	low polyreactivity
QVQLVESGGGLVQAGGSLRLSCAAYGFIFSYYTMGWYRQAPGKERELVAAISYSGGSTYYADSVKGRFTISRDNAKNNVYLQMNSLKPEDTAVYYCTAVAAATYDYWGQGTQVTVSS	high polyreactivity
QVQLVESGGGLVQAGGSLRLSCSASGSIFSYYTMGWYRQAPGKERELVAAITGSGGRTYYADSVKGRFTISRDNAKNTVYLQMNSLKPEDTAVYYCNADRHYVPYYSRPRYIPYDYWGQGTQVTVSS	high polyreactivity
QVQLVESGGGLVQAGGSLRLSCAASGRTFERNAMGWYRQAPGKERQLVAAITSGDGTSYADSVKGRFTISRDNAKNTVYLQMNSLKPEDTAVYYCAAPFVGSVVIRRWDEYDYWGQGTQVTVSS	low polyreactivity

Looking up `QVQLEESAGGLVQAGGSLRLSCAASGRIFNYYAMGWYRQAPGKERELVATISSTGSSTYYADSVKGRFTISRDNAKNTVYLQMNSLKPEDTAVYYCAARYVRQYYRAEDYWGQGTQVTVSS` , I see its polyreactivity (PSR sort gate) listed as high polyreactivity

Looking up `QVQHVESVGGLVQARGSLRLSCAASGSIFDLYAMGWYRQAPGKERELVAGISYSGGSTYYADSVKGRFTISRDNAKNTVYLQMNSLKPEETAVYYCATAYYYHGGYYYPYDDYWGQGTQVTVSS` , I see its polyreactivity (PSR sort gate) listed as low polyreactivity

Looking up `QVQLVESGGGLVQAGGSLRLSCAASGRTFSGYAMGWYRQAPGKERELVAAIRGGSTNYADSVKGRFTISRDNAKNTVYLQMNSLKPEDTAVYYCNAKRSWVWAGYDYWGQGTQVTVSS` , I see its polyreactivity (PSR sort gate) listed as high polyreactivity

Looking up `QVQLVESGGGLVQAGGSLRLSCAASGIIMRKYAMGWYRQAPGKERELVAAITTRGSRTYYADSVKGRFTISRDNAKNTVYLQMNSLKPEDTAVYYCAADRYTVRMDYWGQGTQVTVSS` , I see its polyreactivity (PSR sort gate) listed as high polyreactivity

Looking up `QVQLVESGGGLVQAGGSLRLSCAASGITFWKYTMGWYIPAPGKERELVASIRIGGSTYYADSVKGRFTISRDNAKNTVYLQMNSLKPEDTAVYYCAAKGIYGLQGSPRSGYYYWGQGTQVTVSS` , I see its polyreactivity (PSR sort gate) listed as high polyreactivity

Looking up `QVQLVESGGGLVQAAGSLRLSCAASGSIFYNYAMGWYRQAPGKERELVAAITSGGITYYADSVKGRFTISRDNAKNTVYLQMNSLKPEYTAVYYCAAESLTGYGHYDYWGQGTQVTVSS` , I see its polyreactivity (PSR sort gate) listed as low polyreactivity
